Would you mind telling me the reported glycan array binding signal (z-score) of each entry?
Target: Neu5Ac(a2-6)Gal(b1-4)GlcNAc(b1-3)[Neu5Ac(a2-6)Gal(b1-4)GlcNAc(b1-6)]GalNAc
Assay: glycan array binding signal (z-score within array); higher = stronger binding
Settings: glycan notation: IUPAC condensed, linker removed
The full list was thinned out, with the strongest signals kept by preference.
Answers are plain numbers.

// below: answered binders
1) ArathEULS3 TAP (Arabidopsis thaliana) (protein) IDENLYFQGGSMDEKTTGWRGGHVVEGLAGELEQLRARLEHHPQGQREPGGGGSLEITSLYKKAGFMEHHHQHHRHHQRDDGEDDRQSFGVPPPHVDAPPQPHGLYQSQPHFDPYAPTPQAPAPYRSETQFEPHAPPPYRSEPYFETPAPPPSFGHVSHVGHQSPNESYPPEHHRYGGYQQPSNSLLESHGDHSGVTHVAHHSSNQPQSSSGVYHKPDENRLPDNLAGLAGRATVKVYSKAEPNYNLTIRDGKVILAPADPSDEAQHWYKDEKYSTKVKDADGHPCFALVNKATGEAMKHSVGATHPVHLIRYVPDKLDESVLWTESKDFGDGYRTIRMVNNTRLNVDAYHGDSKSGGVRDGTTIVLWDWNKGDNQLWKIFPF    0.364
2) CC1G-11630 (Coprinopsis cinerea), A8P462 (protein) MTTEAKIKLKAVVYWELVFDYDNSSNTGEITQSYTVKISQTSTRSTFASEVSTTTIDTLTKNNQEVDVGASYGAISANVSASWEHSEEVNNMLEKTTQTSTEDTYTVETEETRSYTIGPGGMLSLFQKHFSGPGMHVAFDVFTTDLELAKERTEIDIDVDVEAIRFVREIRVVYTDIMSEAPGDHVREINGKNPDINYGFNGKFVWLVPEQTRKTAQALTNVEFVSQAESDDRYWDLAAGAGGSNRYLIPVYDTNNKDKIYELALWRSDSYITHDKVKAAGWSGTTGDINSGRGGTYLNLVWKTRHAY    0.001
3) CFEM-PPm (Pichia pastoris), F2QPV1 (protein) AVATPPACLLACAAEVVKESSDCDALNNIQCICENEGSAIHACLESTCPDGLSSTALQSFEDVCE    0.043

--- query ---
Prompt line: Which value of glycan array binding signal (z-score) has been reported for HPAIIITrx (Helix pomatia), Q1KM18 (protein) MLFVTIISLGLLAIVHGQCALKTIAFSAAIDREQTFDANQVVIYDIVITNHGNAYDNSTGLFTAPVDGMYSFQLNLLTIKEKEGWLELVHNGQLKVSVYAKQDSTYDSSSNSVIIKMKEGDRVNVRAHKKSGLFGRDDELYNTFSGHFLSGL in the records?
Response line: -0.408
